Ki, GSK-3β (AA 1-420) (Homo sapiens, UniProt P49841): measured values
Parameter: Ki

- COc1ccc(Nc2nc(Nc3cc(C)[nH]n3)c3ccccc3n2)cc1-c1ccccc1: 1000 to 7000 nM
- Cc1cc(Nc2cc(-c3ccccc3)[nH]n2)nc(Nc2ccc(Cl)cc2)n1: < 100 nM
- COc1ccc(Sc2nc(Nc3cc(C4CC4)[nH]n3)c3ccccc3n2)cc1OC: 1000 to 7000 nM
- CCc1cccc(Nc2nc(Nc3cc(C)[nH]n3)c3ccccc3n2)c1: 100 to 1000 nM
- Cc1cc(Nc2nc(NCc3ccccc3)nc3ccccc23)n[nH]1: 100 to 1000 nM
- Cc1cc(Nc2nc(Sc3ccc(NC(=O)CN(C)C(=O)OC(C)(C)C)cc3)nc3ccccc23)n[nH]1: 1000 to 7000 nM
- c1ccc2cc(Sc3nc(Nc4cc(C5CC5)[nH]n4)cc(N4CCOCC4)n3)ccc2c1: 100 to 1000 nM
- Cc1ccc(Cl)c(Nc2nc(Nc3cc(C)[nH]n3)c3ccccc3n2)c1: 100 to 1000 nM
- c1cncc(CNc2nc(Nc3cc(C4CC4)[nH]n3)c3ccccc3n2)c1: < 100 nM

###

Parameter: melting point

• CC(=O)Nc1ccc(Nc2nc(Nc3cc(C)[nH]n3)c3ccccc3n2)cc1 [IIc-59] = 253 to 256 °C
• CC(=O)Nc1ccc(Sc2nc(Nc3cc(C)[nH]n3)c3ccc(O)cc3n2)cc1 [IIa-74] = 246 to 248 °C
• Cc1cccc(Nc2nc(Nc3cc(C)[nH]n3)c3ccccc3n2)c1 [IIc-50] = 240 to 242 °C
• CN(Cc1cccnc1)c1nc(Nc2cc(C3CC3)[nH]n2)c2ccccc2n1 [IIc-3] = 177 °C
• c1ccc2c(Nc3cc(C4CC4)[nH]n3)nc(NCCC3CCCCC3)nc2c1 [IIc-29] = > 250 °C
• Cc1cc(Nc2nc(Sc3ccc(Br)cc3)nc3ccccc23)n[nH]1 [IIa-46] = > 300 °C
• Cc1cc(Nc2nc(Sc3nccn3C)nc3ccccc23)n[nH]1 [IIa-10] = 255 to 256 °C
• CC(=O)Nc1ccc(Nc2nc(Nc3cc(C)[nH]n3)c3ccccc3n2)cc1C#N [IIc-57] = 294 to 296 °C
• Cc1cc(Nc2nc(Sc3ccc(NC(=O)CC(C)C)cc3)nc3ccccc23)n[nH]1 [IIa-57] = 281 to 282 °C
• CC(=O)Nc1ccc(Sc2nc(Nc3cc(C)[nH]n3)c3ccc(OCCCN(C)C)cc3n2)cc1 [IIa-75] = 249 to 250 °C
• Cc1nc(Sc2ccc3ccccc3c2)nc(Nc2cc(C3CC3)[nH]n2)c1C [IIIa-4] = > 270 °C
• COc1cccc(Nc2nc(Nc3cc(C4CC4)[nH]n3)c3ccccc3n2)c1 [IIc-44] = 207 to 211 °C
• COC(=O)c1cccc(Sc2nc(Nc3cc(C4CC4)[nH]n3)cc(-c3ccccc3)n2)c1 [IIIa-2] = 126 to 129 °C
• CCS(=O)(=O)Nc1ccc(Sc2nc(Nc3cc(C)[nH]n3)cc(-c3ccccc3)n2)cc1 [IIIa-18] = 251 to 254 °C
• CC(=O)Nc1ccc(Sc2nc(Nc3cc(C)[nH]n3)c(C)c(-c3ccccc3)n2)cc1 [IIIa-21] = 276 to 277 °C
• CCc1cccc(Nc2nc(Nc3cc(C)[nH]n3)c3ccccc3n2)c1 [IIc-55] = 238 to 239 °C
• COc1ccc(-c2cc(Nc3cc(C)[nH]n3)nc(Sc3ccc(NC(C)=O)cc3)n2)cc1 [IIIa-22] = 241 to 245 °C
• Cc1cc(Nc2nc(Oc3ccc4c(c3)OCO4)nc3ccccc23)n[nH]1 [IIb-8] = 296 to 299 °C (dec.)
• COCCNc1cc(Nc2cc(C)[nH]n2)nc(SCc2ccc(S(=O)(=O)N3CCOCC3)cc2)n1 [IIIa-36] = 193 to 195 °C
• Cc1cc(Nc2nc(Nc3cccc(CO)c3)nc3ccccc23)n[nH]1 [IIc-16] = > 250 °C
• COC(=O)c1cccc(Sc2nc(Nc3cc(C4CC4)[nH]n3)c3ccccc3n2)c1 [IIa-22] = 224 to 225 °C
• Cc1ccc(Cl)c(Nc2nc(Nc3cc(C)[nH]n3)c3ccccc3n2)c1 [IIc-51] = 246 to 247 °C
• Cc1cc(Nc2nc(Sc3ccc(NC(=O)CCCN4CCOCC4)cc3)nc3ccccc23)n[nH]1 [IIa-64] = 240 to 243 °C
• Cc1cc(Nc2cc(N3CCCCC3)nc(SCc3cccc(Cl)c3)n2)n[nH]1 [IIIa-34] = 234 to 235 °C
• COC(=O)c1ccc(Sc2nc(Nc3cc(C)[nH]n3)c3ccccc3n2)cc1 [IIa-42] = 257 to 260 °C

###

Readings of melting point for the listed compounds
Parameter: melting point

• COC(=O)c1cccc(Nc2nc(Nc3cc(C4CC4)[nH]n3)c3ccccc3n2)c1 = 228 to 231 °C
• CC(=O)Nc1ccc(Nc2nc(Nc3cc(C4CC4)[nH]n3)c3ccccc3n2)cc1C = > 188 °C (dec.)
• CCCS(=O)(=O)Nc1ccc(Sc2nc(Nc3cc(C)n[nH]3)c3ccccc3n2)cc1 = 272 to 273 °C
• Cc1cc(Nc2nc(Nc3ccc(NC(=O)OC(C)(C)C)cc3)nc3ccccc23)n[nH]1 = 238 to 242 °C
• Clc1cccc(Sc2nc(Nc3cc(C4CC4)[nH]n3)c3ccccc3n2)c1Cl = 250 to 252 °C
• CC(=O)Nc1ccc(Sc2nc(Nc3cc(C)n[nH]3)c3ccc(OCCCN4CCOCC4)cc3n2)cc1 = 153 °C (dec.)
• COCCNc1cc(Nc2cc(C)[nH]n2)nc(SCc2cccc(Cl)c2)n1 = 101 to 102 °C
• Cc1cc(Nc2nc(Nc3ccc(NC(=O)C(C)C)cc3)nc3ccccc23)n[nH]1 = 176 to 179 °C
• COc1ccc(Oc2nc(Nc3cc(C)[nH]n3)c3ccccc3n2)cc1OC = 277 to 278 °C

###

Parameter: melting point

- O=C(O)COc1ccc(Nc2nc(Nc3cc(C4CC4)[nH]n3)c3ccccc3n2)cc1: > 250 °C
- Cc1cc(Nc2nc(NC3CCCCC3)nc3ccccc23)n[nH]1: 280 °C (dec.)
- Clc1ccccc1Sc1nc(Nc2cc(C3CC3)[nH]n2)c2ccccc2n1: 255 to 257 °C
- COc1ccc(Nc2nc(Nc3cc(C4CC4)[nH]n3)c3ccccc3n2)cc1OC: 144 °C
- Cc1cc(Nc2nc(Sc3ccc(C(=O)O)cc3)nc3ccccc23)[nH]n1: 263 to 265 °C
- Cc1cc(Nc2nc(Nc3ccc(Br)cc3)nc3ccccc23)n[nH]1: 290 to 293 °C
- N#CCc1ccc(Nc2nc(Nc3cc(C4CC4)[nH]n3)cc(-c3ccccc3)n2)cc1: 294 to 297 °C
- Cc1cc(Nc2cc(-c3c(C)cccc3C)nc(Sc3ccc4ccccc4c3)n2)n[nH]1: 148 to 152 °C
- CC(=O)Nc1ccc(Sc2nc(Nc3cc(C)[nH]n3)c3cccc(O)c3n2)cc1: 258 to 259 °C
- c1ccc(COCc2nc(Nc3cc(C4CC4)[nH]n3)c3ccccc3n2)cc1: 211 to 213 °C
- Cc1cc(Nc2cc(-c3ccccc3C)nc(Sc3ccc4ccccc4c3)n2)n[nH]1: 211 to 214 °C
- COc1cccc2c(Nc3cc(C)n[nH]3)nc(Sc3ccc(NC(C)=O)cc3)nc12: 247 to 249 °C
- c1ccc2c(c1)CC(Nc1nc(Nc3cc(C4CC4)[nH]n3)c3ccccc3n1)C2: 233 to 234 °C
- Cc1cc(Nc2nc(Sc3ccc(NC(=O)CN(C)C)cc3)nc3ccccc23)n[nH]1: 241 to 243 °C
- O=C(O)Cc1ccc(Nc2nc(Nc3cc(C4CC4)[nH]n3)c3ccccc3n2)cc1: > 210 °C (dec.)
- Fc1ccc(Sc2nc(Nc3cc(C4CC4)[nH]n3)c3ccccc3n2)c(F)c1: 250 to 253 °C
- CCc1cccc(Nc2nc(Nc3cc(C4CC4)[nH]n3)c3ccccc3n2)c1: 186 to 188 °C
- Cc1cc(Nc2nc(Nc3ccc4oc(=O)c5ccccc5c4c3)nc3ccccc23)n[nH]1: 293 to 298 °C

###

# Measurement Target: Aurora-2 (Homo sapiens, UniProt O14965)
# Sequence (O14965 1-403): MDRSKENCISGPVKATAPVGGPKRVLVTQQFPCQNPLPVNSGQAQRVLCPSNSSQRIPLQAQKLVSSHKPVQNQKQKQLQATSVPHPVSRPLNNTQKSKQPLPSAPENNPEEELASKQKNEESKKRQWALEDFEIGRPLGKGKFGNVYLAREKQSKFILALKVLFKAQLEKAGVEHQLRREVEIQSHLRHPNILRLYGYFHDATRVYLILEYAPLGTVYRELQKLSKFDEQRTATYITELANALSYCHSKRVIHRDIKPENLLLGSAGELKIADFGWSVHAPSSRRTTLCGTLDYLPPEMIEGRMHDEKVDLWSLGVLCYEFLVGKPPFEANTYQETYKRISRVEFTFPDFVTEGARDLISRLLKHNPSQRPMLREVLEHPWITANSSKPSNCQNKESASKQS
pKi: −log10 of the molar value.
Parameter: pKi

- c1ccc(OCCNc2nc(Nc3cc(C4CC4)[nH]n3)c3ccccc3n2)cc1 [IIc-34]: > 7.00
- Clc1ccccc1Nc1nc(Nc2n[nH]c3ccccc23)c2ccccc2n1 [IIc-75]: 5.00 to 6.00
- Cc1cc(Nc2nc(Sc3ccc(NC(=O)CN(C)C)cc3)nc3ccccc23)n[nH]1 [IIa-68]: > 7.00
- Clc1cccc(Sc2nc(Nc3cc(C4CC4)[nH]n3)c3ccccc3n2)c1Cl [IIa-30]: > 7.00
- O=C(O)Cc1ccc(Nc2nc(Nc3cc(C4CC4)[nH]n3)c3ccccc3n2)cc1 [IIc-36]: > 7.00
